# tgt: Gamma-secretase
# assay-text: Inhibition of gamma secretase in human H4 cells assessed as reduction in amyloid beta40 level by ELISA
experimental-readout: IC50 (nM)

Below are worked cases with known answers.
molecule-smiles	tgt	IC50, nM
CC(C)N(CCCn1ccnc1)C(=O)OC[C@@H](C)N(c1cc(Cl)ccc1CO)S(=O)(=O)c1ccc(Cl)cc1	Gamma-secretase	19
CCCNC(=O)OC[C@@H](C)N(c1cc(Cl)ccc1CO)S(=O)(=O)c1ccc(Cl)cc1	Gamma-secretase	10
C[C@H](COC(=O)NCCCn1ccnc1)N(c1cc(Cl)ccc1F)S(=O)(=O)c1ccc(Cl)cc1	Gamma-secretase	0.66
C[C@H](COC(=O)NCCCn1ccnc1)N(c1cc(Cl)ccc1CO)S(=O)(=O)c1ccc(Cl)cc1	Gamma-secretase	2.3

1: CCN(CCCn1ccnc1)C(=O)OC[C@@H](C)N(c1cc(Cl)ccc1CO)S(=O)(=O)c1ccc(Cl)cc1
2: C[C@H](COC(=O)NCCCn1ccnc1)N(c1cc(F)ccc1F)S(=O)(=O)c1ccc(Cl)cc1
Sorting by IC50 in descending order, would 1 or 2 appear first? Selection: enter the item's label.
2
